study system: human QC (Homo sapiens)
Sequence (Q16769 29-361): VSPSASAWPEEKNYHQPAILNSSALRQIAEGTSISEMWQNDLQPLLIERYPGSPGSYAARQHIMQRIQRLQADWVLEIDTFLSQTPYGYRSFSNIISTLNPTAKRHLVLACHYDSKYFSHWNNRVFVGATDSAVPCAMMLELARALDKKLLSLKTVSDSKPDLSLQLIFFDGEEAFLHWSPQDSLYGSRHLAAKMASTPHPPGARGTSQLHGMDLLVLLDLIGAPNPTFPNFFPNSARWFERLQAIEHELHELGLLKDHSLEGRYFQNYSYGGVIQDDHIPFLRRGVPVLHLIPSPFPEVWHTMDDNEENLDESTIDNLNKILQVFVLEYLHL
measure: pKi
// pKi is dimensionless: -log10 of concentration (M)

What value of measured pKi is listed for "CC(=O)c1ccc(NC(=S)NCCCn2ccnc2)cc1" ?
5.75
